system: PRKD1; parameters: species or system human, MV4-11 + K-562 + COLO205 + SK-N-BE2 + OVCAR-8; details: read-out: apparent Kd; compound concentrations:100 nM and 1000 nM (sheet 'Samples'); n = 1
Overview of reported potency estimated from few doses across a group of molecules:
All answers are understood in µM, so give the number only.

// solved cases for potency estimated from few doses follow
| molecule | reading.unit | experimental.result |
| --- | --- | --- |
| FC(F)(F)c1ccc(-c2nn3ncccc3c2-c2ccnc(Nc3cccc(C(F)(F)F)c3)n2)cc1 [GW828205X] | µM | 1.82 |
| CN(C)CCOc1ccc(-c2cc(-c3c[nH]nc3-c3ccccn3)ccn2)cc1 [GW835314X] | µM | 0.161 |
| CC(C)c1nc(-c2ccc(F)c(NS(=O)(=O)c3c(F)cccc3F)c2)c(-c2ccnc(Nc3ccc(N4CCOCC4)nc3)n2)s1 [GSK1804250A] | µM | 1.14 |

Consider the record given below.
Find potency estimated from few doses (PRKD1) for the entry "O=C1NC(=O)C(N2CCc3ccccc32)=C1c1ccccc1Cl"
1.58

###

test system: ACVR1B; design: species or system human, MV4-11 + K-562 + COLO205 + SK-N-BE2 + OVCAR-8; settings: read-out: apparent Kd; compound concentrations:100 nM and 1000 nM (sheet 'Samples'); n = 1
endpoint.name: potency estimated from few doses
Hey, just the number and the unit after it is fine.

Solved entries (count: 3):
| molecule | experimental.result |
| --- | --- |
| Cl.c1ccc(-c2nc3n(c2-c2ccc4c(c2)OCO4)CCC3)nc1 | 0.087 µM |
| c1ccc(-c2n[nH]cc2-c2ccnc(-c3ccc(OCCN4CCOCC4)cc3)c2)nc1 [GW695874X] | 0.0514 µM |
| COc1ccc2cc(-c3c(-c4ccncc4)nc(-c4ccc(S(C)(=O)=O)cc4C)n3C)ccc2c1 | 0.686 µM |

Tell me reported potency estimated from few doses for O=C(c1ccc(-c2cc(-c3c[nH]nc3-c3ccccn3)ccn2)cc1)N1CCCC1 [GW792479X] , tested with ACVR1B.
0.27 µM

###

test system: PIK3CD; set-up: species or system human, MV4-11 + K-562 + COLO205 + SK-N-BE2 + OVCAR-8; conditions: read-out: apparent Kd; compound concentrations:100 nM and 1000 nM (sheet 'Samples'); n = 1
endpoint.name: potency estimated from few doses (nM)
Dear colleague, please return just the value in nM, with no unit written.

The cases that follow already have their potency estimated from few doses on record.
| compound | potency estimated from few doses, nM |
| --- | --- |
| CN(C1=C(c2ccccc2)C(=O)NC1=O)c1ccccc1 [SB-334860] | 175 |
| CNc1cc(-c2ccc3c(N)n[nH]c3c2)nc(N)n1 [GSK2224810A] | 83.4 |

Return reported potency estimated from few doses; argument: O=C(NCCNc1ccnc(NCc2ccc(F)cc2)n1)c1cc2ccccc2s1 [GSK1379944A]
200

###

tested on: OPA1; set-up: species or system human, MV4-11 + K-562 + COLO205 + SK-N-BE2 + OVCAR-8; details: read-out: apparent Kd; compound concentrations:100 nM and 1000 nM (sheet 'Samples'); n = 1
endpoint.name: potency estimated from few doses (µM)
Answer format: numeric, µM implied, no suffix.

Look at this compound and give its reported potency estimated from few doses. "COc1ccc(-c2oc3ncnc(N)c3c2-c2ccc(OC)cc2)cc1"
1.86

Name the recorded potency estimated from few doses for Cc1ccc(NC(=O)CC2CC2)cc1-c1ccc(C(=O)NCC2CC2)cc1 [GW796920X] .
1.7

Give its potency estimated from few doses value. Item: FC(F)(F)c1ccc(-c2nn3ncccc3c2-c2ccnc(Nc3cccc(C(F)(F)F)c3)n2)cc1 [GW828205X]
1.63

What value of measured potency estimated from few doses is listed for "O=C(Nc1n[nH]c2nc(-c3nccs3)c(Br)cc12)C1CC1" ?
1.52
